system: NIH3T3; experiment: qHTS assay to identify novel small-molecules to repurpose for Merkel cell carcinoma treatment (AID 1296009); conditions: MCC and control cell lines, CellTiter-Glo viability, 72 h; at 44.8 µM (top of the series) unless noted; further: nearly all actives have a fitted effect of over 60% in size
Inconclusive results are not listed. Active and inactive are the calls of the source. The call rests on the fitted dose curve; in most records, active means well fitted inhibition curve with a large enough effect; inconclusive means small, poorly fitted or top-dose-only effect; inactive means flat fitted curve, though single readings scatter.
MEASURE: outcome

Solved cases (4 shown):
Prompt: Could you tell me which outcome is on file for "CCN1C[C@]2(COC)[C@H](O)C[C@H](OC)[C@]34[C@@H]5C[C@]6(O)[C@H](OC(=O)c7ccccc7)[C@@H]5[C@@](O)([C@H]([C@H](OC)[C@H]23)[C@@H]14)[C@@H](O)[C@@H]6OC" ?
Completion: inactive

Prompt: Could you tell me which outcome is on file for "C[C@@](O)(COc1ccc(C#N)cc1)C(=O)Nc1ccc(C#N)c(C(F)(F)F)c1" ?
Completion: inactive

Prompt: Could you tell me which outcome is on file for "C[C@]12CC[C@@H](O)C[C@H]1CC[C@@H]1[C@@H]2CC[C@]2(C)C(=O)CC[C@@H]12" ?
Completion: inactive

Prompt: Could you tell me which outcome is on file for "Clc1ccc(N2C[C@H]3CC[C@@H](C2)N3)nn1" ?
Completion: inactive

New cases:
Prompt: Could you tell me which outcome is on file for "Clc1ccc(OCC2=NCCN2)cc1Cl" ?
Completion: inactive

Prompt: Could you tell me which outcome is on file for CC(C)C1(OO)C=C2C(=O)CC3C(C)(C(=O)O)CCCC3(C)C2CC1 (stereo not drawn) ?
Completion: inactive

From: PubChem BioAssay (NCATS)
